# SYSTEM_TESTED: Cytochrome P450 2C19 (Homo sapiens) (UniProt P33261)
# Sequence (P33261 whole entry, looked up): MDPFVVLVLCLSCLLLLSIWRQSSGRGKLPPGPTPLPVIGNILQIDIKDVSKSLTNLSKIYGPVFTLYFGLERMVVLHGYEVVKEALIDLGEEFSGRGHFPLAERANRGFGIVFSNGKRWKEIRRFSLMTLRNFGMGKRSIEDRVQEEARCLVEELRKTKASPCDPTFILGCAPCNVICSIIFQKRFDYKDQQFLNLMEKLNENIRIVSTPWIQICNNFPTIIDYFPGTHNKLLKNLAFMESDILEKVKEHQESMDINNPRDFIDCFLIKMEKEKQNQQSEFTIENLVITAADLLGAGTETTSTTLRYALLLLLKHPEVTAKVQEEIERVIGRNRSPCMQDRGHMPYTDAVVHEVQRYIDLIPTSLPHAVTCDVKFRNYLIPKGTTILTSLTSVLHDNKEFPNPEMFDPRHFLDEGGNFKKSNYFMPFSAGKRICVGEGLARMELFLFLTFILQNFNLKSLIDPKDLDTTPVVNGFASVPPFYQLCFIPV
# ASSAY_COMMENT: Cytochrome panel assay with activity outcomes
# EXPERIMENTAL_SETUP: recombinant CYP, pro-luciferin dealkylation, luminescence, p450-cyp2c19; series mostly up to 57.1 µM
Among all 16,000 compounds or so, about 5,800 (36%) were called active. About 23% were inconclusive and are not listed. The call rests on the fitted dose curve; in most records, active means well fitted curve in the direction sought with a large enough effect; inconclusive means small, poorly fitted or top-dose-only effect, or effect the other way; inactive means no such curve, though single readings can be large or run the other way. The list shows a part of the results.
Outcome codes: yes (active), no (inactive)

• COC(=O)C1CSC(C(=O)OC)N1C(=O)Nc1c(C)cccc1C (centres undefined) = yes
• Cc1n[nH]c(=O)[nH]c1=O = no
• Clc1ccc(CC[C@H](Cn2ccnc2)Sc2c(Cl)cccc2Cl)cc1 = yes
• COc1cc([N+](=O)[O-])ccc1NC(=O)CCCOc1cccc(C)c1 = yes
• Cc1ccc[n+](CC(=O)c2cc3ccccc3oc2=O)c1 = no
• Cc1nn(C)c(C)c1CNC(=O)c1cnn2c1NC(c1ccccc1)CC2C(F)(F)F (centres undefined) = no
• CC(C)OC(=O)c1cc2ccccc2oc1=O = yes
• CCOC(=O)c1c(C)n(C)c2ccc(OC)c(NS(=O)(=O)c3ccc(Cl)s3)c12 = yes
• COc1ccccc1C(=O)NC(=S)N1CCCc2ccccc21 = yes
